Field: TGI. Provide a value for each of the compounds that follow.
tested on: DMS 273 small cell lung; assay: NCI tumour cell line growth inhibition, 48 h
Response body: numeric value in µM, unit text excluded.

Incoming: Could you share what TGI was measured for ClCc1ccc(C2OCCO2)cc1 , tested on DMS 273 small cell lung?
Outgoing: 45.3

Incoming: Could you share what TGI was measured for COc1cc(C2c3cc4c(cc3[C@@H](OCCN(C)C)C3COC(=O)[C@H]23)OCO4)cc(OC)c1O (some centres undefined) , tested on DMS 273 small cell lung?
Outgoing: 0.632

* * *

system: MCF7 breast; assay: NCI tumour cell line growth inhibition, 48 h; in the data active = GI50 below about 0.43 µM; inactive = the rest
// allowed return values: yes (1) = active, no (0) = inactive

Incoming: // param item: COc1cc2c3c(ncc2c(OC)c1OC)-c1cc2c(cc1C3)OCO2 ; yields the recorded call
Outgoing: no (0)

Incoming: // param item: C/C(=C(/c1ccc(O)cc1)c1ccc(Cl)cc1)c1ccccc1 ; yields the recorded call
Outgoing: no (0)

Incoming: // param item: COc1cc(/C=C2\CN(C(=O)CCN3CCC(=NO)CC3)C/C(=C\c3cc(OC)c(OC)c(OC)c3)C2=O)cc(OC)c1OC ; yields the recorded call
Outgoing: yes (1)
